The compounds listed here are annotated with their pIC50.
test system: GCPA096 T1.XVI patient-derived AGCT cell line; test: Cell viability drug screen (Cell Titer Glo 2.0, 72 h), mono- and combination therapy, GCPA096T1.XVI; conditions: read-out: IC50 in monotherapy; GCPA096T1XVI, monotherapy
Just so you know, pIC50 here is -log10 of the concentration in molar units; reply with that number alone.

Nc1nc2c(ncn2[C@H]2C[C@H](O)[C@@H](CO)O2)c(=S)[nH]1    4.36

Next:
// lookup pIC50 | system=GCPA096 T1.XVI patient-derived AGCT cell line | key= `N.N.O=C([O-])C1(C(=O)[O-])CCC1.[Pt+2]` 3.84

====

The molecules listed here are annotated with their pIC50.
system: GCPA108 T3.IV patient-derived AGCT cell line; assay: Cell viability drug screen (Cell Titer Glo 2.0, 72 h), mono- and combination therapy, GCPA108T3.IV; conditions: Homo sapiens, 72 h, read-out: IC50 in monotherapy
pIC50: −log10 of the molar value.

CO[C@H]1C[C@@H]2CC[C@@H](C)[C@@](O)(O2)C(=O)C(=O)N2CCCC[C@H]2C(=O)O[C@H]([C@H](C)C[C@@H]2CC[C@@H](OCCO)[C@H](OC)C2)CC(=O)[C@H](C)/C=C(\C)[C@@H](O)[C@@H](OC)C(=O)[C@H](C)C[C@H](C)/C=C/C=C/C=C/1C    < 4.30

Entry `CC(=O)[C@@]1(O)CC[C@H]2[C@@H]3CCC4=CC(=O)CCC4=C3[C@@H](c3ccc(N(C)C)cc3)C[C@@]21C` has what pIC50? < 4.30

Entry `Cc1nc(Nc2ncc(C(=O)Nc3c(C)cccc3Cl)s2)cc(N2CCN(CCO)CC2)n1` has what pIC50? 5.33

Entry `Cc1nc(NC(=O)N2CCC[C@H]2C(N)=O)sc1-c1ccnc(C(C)(C)C(F)(F)F)c1` has what pIC50? 4.27

Entry `CC(C)(C#N)c1cc(Cn2cncn2)cc(C(C)(C)C#N)c1` has what pIC50? < 3.70

Entry `CC(=O)O[C@H]1C(=O)[C@@]2(C)[C@H]([C@H](OC(=O)c3ccccc3)[C@]3(O)C[C@H](OC(=O)[C@H](O)[C@@H](NC(=O)c4ccccc4)c4ccccc4)C(C)=C1C3(C)C)[C@]1(OC(C)=O)CO[C@@H]1C[C@@H]2O` has what pIC50? < 4.30
